Would you kindly list pIC50 for each of these compounds?
target_system: Renin (Sus scrofa)
protocol_details: Inhibition of renin was measured using hog kidney renin and the radiolabeled synthetic substrate, H-Ile-His-Pro-Phe-His-Leu-[14C]Leu-Val-Tyr-Ser-OH
pIC50: −log10 of the molar value.

Query :: Value lookup for pIC50; key = CC(C)CCNC(=O)[C@@H](C)NC(=O)C[C@H](O)C(CC(C)C)NC(=O)CC(C)C (some centres not stated)
Result :: < 3.48

Query :: Also CC(C)CC(=O)N[C@@H](C(=O)N[C@@H](CC(C)C)C(O)CC(N)=O)C(C)C (some centres not stated) ?
Result :: < 3.48
